The reported numbers originate from paper PMC5991393.

# Assay Remarks: Pharmacokinetic study of oral co-administration of SK14-061a and ETV in rats
# Assay type: in vivo
# Test Parameters: rat, plasma, po, 1 mg/kg; read-out: tmax
Property Name: Tmax
The reply should consist of the numeric value with the unit placed after it.

Can you look up the measured Tmax of N#C[C@]1(CO)O[C@@H](n2cnc3c(O)ncnc32)C[C@@H]1O [SK14-061a, 4′-cyano-2′-deoxyinosine] for me?
1.07 h

Need Tmax, item "C=C1[C@H](CO)[C@@H](O)C[C@@H]1n1cnc2c(=O)[nH]c(N)nc21"
1.25 h
